Test system: OVCAR-4
assay-protocol: NCI tumour cell line growth inhibition, 48 h
Activity calls are given as the source filed them. No stated cut-off is given here; in the data, active = GI50 up to about 1.1 µM and inactive = higher.
# valid calls are TRUE = active, FALSE = inactive; nothing else

Outcome? `COc1ccc2c(ccc3c(C(=O)NCCN(C)CCNC(=O)c4cn(C)c5c4ccc4cc(OC)ccc45)cn(C)c32)c1`
FALSE

Look up the recorded call for COC(=O)C(CCC1C=CN(S(=O)(=O)c2ccc(C)cc2)C1)/N=C/c1ccccc1 (stereo unspecified) in this test.
FALSE

Please share the test call associated with `O=C(N/N=C/c1cc(Br)cc(Br)c1O)c1ccccc1O` .
TRUE

* * *

System: OVCAR-4
assay-protocol: NCI tumour cell line growth inhibition, 48 h
Active and inactive are the calls of the source. No stated cut-off is given here; in the data, active = GI50 up to about 1.1 µM and inactive = higher.
value-type: GI50

CCCCCCCCCCCCCCCC[N+](C)(C)CCl; 2.86 µM (inactive)
S=c1[nH]c2c(Cl)c(Cl)c(Cl)c(Cl)c2[nH]1; 5.94 µM (inactive)
c1ccc(C2=NC3OC2c2ccccc23)cc1 (stereo not drawn); > 10 µM (inactive)
CC1=C(C(=O)CC(=O)C(=O)Nc2ccc(C)c(C)c2)Sc2ccccc2N1; > 100 µM (inactive)

Per the record, CC(C)N(C(=O)C12C3C4C5C3C1(C(=O)N(C(C)C)C(C)C)C5C42)C(C)C (stereo not drawn) has GI50 of > 100 µM (inactive)

Briefly, GI50 measured for `COC(=O)[C@@H](COC(=O)/C=C/c1ccc(OC(C)=O)c(OC(C)=O)c1)NC(=O)/C=C/c1ccc(OC(C)=O)c(OC(C)=O)c1` : 16.4 µM (inactive)

Quick note, GI50 for CCOC(=O)C1(C/C=C(/C)Cl)CCCC1=O (stereo not drawn) landed at > 100 µM (inactive)

GET /value?item= CC1(C)[N+]([O-])=[N+]([O-])C1(C)O (stereo not drawn) &field=GI50 returns > 100 µM (inactive)
